assay.text: LNP particle size by dynamic light scattering (Zetasizer Nano ZS)
Format: physicochemical
applied.conditions: Table 1; number-average particle diameter; N/P ratio 3:1; DMPE-PEG2000
measured.attribute: <d>N (nm)
Give bare numbers, in nm.

CCCCCC(CCCCC)CCOC(=O)CCCCCCCC(CCCCCCCC(=O)OCCC(CCCCC)CCCCC)NCC1CCOC1 (stereo not drawn) | 58
CCCCCC(CCCCC)CCOC(=O)CCCCCCCC(CCCCCCCC(=O)OCCC(CCCCC)CCCCC)NC1CC2(COC2)C1 | 68
CCCCCC(CCCCC)CCOC(=O)CCCCCCCC(CCCCCCCC(=O)OCCC(CCCCC)CCCCC)NCC1COC1 | 54
CCCCCC(CCCCC)CCOC(=O)CCCCCCCC(CCCCCCCC(=O)OCCC(CCCCC)CCCCC)NCC1CCOCC1 | 62
CCCCC/C=C\C/C=C\CCCCCCCCC(CCCCCCCC/C=C\C/C=C\CCCCC)OC(=O)CCCN(C)C [MC3, reference compound] | 72

From here, focus on the item given below.
Memo: `CCCCCC(CCCCC)CCOC(=O)CCCCCCCC(CCCCCCCC(=O)OCCC(CCCCC)CCCCC)NC1CCOCC1` , reported <d>N (nm): 58

* * *

assay.text: LNP particle size by dynamic light scattering (Zetasizer Nano ZS)
Format: physicochemical
applied.conditions: Table 4; N/P ratio 3:1; DMPE-PEG2000
Sorting guide: entries reporting <d>N (nm) beneath 70 nm go in the True pile, the rest go in the False pile.

CCCCCCCCC(CCCCCCCC)OC(=O)CCCCCCCC(CCCCCCCC(=O)OCC(CCCCCCC)CCCCCCC)NC1CC2(COC2)C1 (centres unmarked) | True
CCCCCCCCC(CCCCCCCC)OC(=O)CCCCCCC(CCCCCCC(=O)OCCCCCCCC(C)C)NC1CC2(COC2)C1 (centres unmarked) | True
CCCCCCCCC(CCCCCCCC)OC(=O)CCCCCCC(CCCCCCC(=O)OCCC(CCCCCCC)CCCCCCC)NC1CC2(COC2)C1 (centres unmarked) | True

Incoming: Lab note: confirm whether the reported <d>N (nm) for this compound is below 70 nm, equality not counting. compound: `CCCCCC(CCCCC)CCOC(=O)CCCCCCCCC(CCCCCCCCC(=O)OCCC(CCCCC)CCCCC)NCC1COC1`
Outgoing: True

Incoming: Threshold test, <d>N (nm) < 70 nm: `CCCCCCCC(CCCCCCC)COC(=O)CCCCCCC(CCCCCCC(=O)OCC(CCCCCCC)CCCCCCC)NC1CC2(COC2)C1`
Outgoing: False

* * *

Tested on: Female BALB/c mice
assay.text: eGFP expression in the liver at 24 hours after intravenous administration of LNP formulations to mouse (ELISA)
Type: in vivo
applied.conditions: Table 4, 0.3 mg/kg, LNP N/P 3:1, DMPE-PEG2000
measured.attribute: Liver eGFP protein (ng/g tissue)
One number for each entry, in ng/g tissue.

Known Liver eGFP protein (ng/g tissue) results, listed for orientation:
CCCCCCCCCOC(=O)CCCCCC(CCCCCC(=O)OC(CCCCCCCC)CCCCCCCC)NC1CC2(COC2)C1 (centres unmarked) | 9938.1
CCCCCC(CCCCC)CCOC(=O)CCCCCCCCC(CCCCCCCCC(=O)OCCC(CCCCC)CCCCC)NC1CCOCC1 | 829.4
CCCCCC(CCCCC)CCOC(=O)CCCCCCCCC(CCCCCCCCC(=O)OCCC(CCCCC)CCCCC)NCC1CCOCC1 | 6831.3
CCCCCCCCCOC(=O)CCCCCCC(CCCCCCC(=O)OC(CCCCCCCC)CCCCCCCC)NC1CC2(COC2)C1 (centres unmarked) | 748.9

Please look at the following compound next.
Value of measured Liver eGFP protein (ng/g tissue) for the entry CCCCCCCCCOC(=O)CCCCCC(CCCCCC(=O)OC(CCCCCCCC)CCCCCCCC)NCC1COC1 (centres unmarked) : 9757.7

* * *

assay.text: mRNA encapsulation efficiency of LNP formulations (Quant-it Ribogreen assay with Triton-X100)
Type: physicochemical
applied.conditions: Table 4; N/P ratio 3:1; DMPE-PEG2000
measured.attribute: % EE

Example entries begin here.
CCCCCC(CCCCC)CCOC(=O)CCCCCCCCC(CCCCCCCCC(=O)OCCC(CCCCC)CCCCC)NCC1CCOCC1 [Compound 17] | 93%
CCCCCCCCC(CCCCCCCC)OC(=O)CCCCCCC(CCCCCCC(=O)OCCC(CCCCCCC)CCCCCCC)NC1CC2(COC2)C1 (stereo not shown) [Compound 27] | 97%
CCCCCC(CCCCC)CCOC(=O)CCCCCCCCC(CCCCCCCCC(=O)OCCC(CCCCC)CCCCC)NC1CCOCC1 [Compound 15] | 97%

// field: % EE; key: CCCCCCCCC(CCCCCCCC)OC(=O)CCCCCCCC(CCCCCCCC(=O)OC(CCCCCCCC)CCCCCCCC)NC1CC2(COC2)C1 [Compound 31] ; value = 94%

* * *

System: Female BALB/c mice
assay.text: eGFP expression in the liver at 24 hours after intravenous administration of LNP formulations to mouse (ELISA)
Format: in vivo
applied.conditions: Table 3, 0.3 mg/kg, LNP N/P 3:1, DMPE-PEG2000
measured.attribute: Liver eGFP protein (ng/g tissue)
Units required after the number.

CCCCCC(CCCCC)CCOC(=O)CCCCCCCC(CCCCCCCC(=O)OCCC(CCCCC)CCCCC)NCC1CCCCO1 (stereo not shown) | 3621.3 ng/g tissue
CCCCCC(CCCCC)CCOC(=O)CCCCCCCCC(CCCCCCCCC(=O)OCCC(CCCCC)CCCCC)NC1CC2(COC2)C1 | 8056.3 ng/g tissue
CCCCCC(CCCCC)CCOC(=O)CCCCCC(CCCCCC(=O)OCCC(CCCCC)CCCCC)NC1CC2(COC2)C1 | 8798.8 ng/g tissue

Now look at this entry.
Liver eGFP protein (ng/g tissue) reported for this compound `CCCCCC(CCCCC)CCOC(=O)CCCCCCCC(CCCCCCCC(=O)OCCC(CCCCC)CCCCC)NCCC1CCOCC1` : 6526.4 ng/g tissue

* * *

assay.text: mRNA encapsulation efficiency of LNP formulations (Quant-it Ribogreen assay with Triton-X100)
Assay type: physicochemical
applied.conditions: Table 5; N/P ratio 3:1; DMPE-PEG2000
What % EE was measured for each of the following?
One number for each entry, in %.

Below are some compounds; for each one, tell me its % EE.
1. CCCCCCCCC(CCCCCCCC)OC(=O)CCCCCCCC(CCCCCCCC(=O)OCCC(C)CCCCCC)NCC1CCOCC1 (stereo not shown) [Compound 43]
2. CCCCCCCCC(CCCCCCCC)OC(=O)CCCCCCCC(CCCCCCCC(=O)OCCC(C)CCCCCC)NC1CC2(COC2)C1 (stereo not shown) [Compound 42]
3. CCCCCCCCC(CC)OC(=O)CCCCCCCC(CCCCCCCC(=O)OC(CCCCCCCC)CCCCCCCC)NCC1CCOCC1 (stereo not shown) [Compound 39]
4. CCCCCCCCC(CCCCCCCC)OC(=O)CCCCCCCC(CCCCCCCC(=O)OCC(C)CCCCCCC)NCC1CCOC1 (stereo not shown) [Compound 21]
5. CCCCCCCCC(C)OC(=O)CCCCCCCC(CCCCCCCC(=O)OC(CCCCCCCC)CCCCCCCC)NCC1CCOCC1 (stereo not shown) [Compound 35]
6. CCCCC/C=C\C/C=C\CCCCCCCCC(CCCCCCCC/C=C\C/C=C\CCCCC)OC(=O)CCCN(C)C [MC3, reference compound]
7. CCCCCCCCC(C)OC(=O)CCCCCCCC(CCCCCCCC(=O)OC(CCCCCCCC)CCCCCCCC)NCC1COC1 (stereo not shown) [Compound 37]

Outgoing:
1. 95
2. 94
3. 97
4. 97
5. 95
6. 98
7. 93

* * *

assay.text: mRNA encapsulation efficiency of LNP formulations (Quant-it Ribogreen assay with Triton-X100)
Type: physicochemical
applied.conditions: Table 4; N/P ratio 3:1; DMPE-PEG2000
measured.attribute: % EE (%)
Give bare numbers, in %.

Answered cases to consult:
CCCCCCCCCOC(=O)CCCCCC(CCCCCC(=O)OC(CCCCCCCC)CCCCCCCC)NCC1COC1 (stereo not shown) | 97
CCCCCCCCC(C)OC(=O)CCCCCCC(CCCCCCC(=O)OCC(CCCCCCC)CCCCCCC)NC1CC2(COC2)C1 (stereo not shown) | 90
CCCCCC(CCCCC)CCOC(=O)CCCCCCCCC(CCCCCCCCC(=O)OCCC(CCCCC)CCCCC)NCC1COC1 | 97
CCCCCCCCCOC(=O)CCCCCC(CCCCCC(=O)OC(CCCCCCCC)CCCCCCCC)NC1CC2(COC2)C1 (stereo not shown) | 92
CCCCCC(CCCCC)CCOC(=O)CCCCCCCCC(CCCCCCCCC(=O)OCCC(CCCCC)CCCCC)NCC1CCCCO1 (stereo not shown) | 91
CCCCCC(CCCCC)CCOC(=O)CCCCCC(CCCCCC(=O)OCCC(CCCCC)CCCCC)NC1CCOCC1 | 88

Next, consider the following molecule.
The reported value for CCCCCCCCC(CCCCCCCC)OC(=O)CCCCCCCC(CCCCCCCC(=O)OCC(CCCCCCC)CCCCCCC)NC1CC2(COC2)C1 (stereo not shown) in terms of % EE is 97

Numbers sourced from patent US20230181482A1.
